meta.source: PubChem BioAssay (NCI)

- System: OVCAR-8 ovarian
- assaySummary: NCI-60 one-dose screen, 48 h (100 = growth as untreated, 0 = no growth, -100 = all killed)
- testParameters: 10 µM unless noted
Compounds without any hit were thinned out: in the full panel of roughly 83,000, 20% have a hit.
quantity: growth (%)
Unit % implied. Number only.

>>> observed("O=C(c1ccccc1)c1ccc2nc(-c3cccc(Cl)c3)[nH]c2c1")
103
>>> observed("Cc1ccc([C@H]2C(C(=O)c3ccc(Cl)cc3)C3(N[C@@H]2c2ccccc2)C(=O)Nc2ccc(Br)cc23)cc1 (some centres undefined)")
66.4
>>> observed("O=c1[nH]c2ccccc2cc1CSc1nccc(-c2ccc3ccccc3c2)n1")
79.6
>>> observed("CN1CCN(c2ccc3c(c2)nc(NNC(=O)c2cnccn2)c2cccn23)CC1")
-79.4
>>> observed("C=C1CC[C@@H]2[C@]3(C)COC(c4cn[nH]c4-c4cccc(Cl)c4)O[C@@H]3CC[C@@]2(C)[C@@H]1C/C=C1/C(=O)OCC1O (some centres undefined)")
-23.3

Problem: Provide growth value for the following compound: Cc1ccccc1[C@H]1C(C(=O)c2ccc(Cl)cc2)C2(N[C@@H]1c1ccccc1)C(=O)Nc1ccccc12 (some centres undefined)
Solution: -67.9

Problem: Provide growth value for the following compound: "C/C(=N\N=C\c1cc([N+](=O)[O-])ccc1Cl)c1ccc2c(c1)Nc1ccccc1S2"
Solution: 16.6

Problem: Provide growth value for the following compound: "O=C(/C=C/Nc1ccc(Cl)cc1)c1ccc2c(c1)Nc1ccccc1S2"
Solution: 12.4

Problem: Provide growth value for the following compound: "CC(C)c1sc(NC(=O)c2cc(NC(=O)c3cc(NC(=O)c4nccn4C)cn3C)cn2C)nc1C(=O)NCCCN(C)C"
Solution: 81.2
